Tested on: K562
Test: Antiproliferative activity against human K562 cells after 48 hrs by MTT assay
Type: functional, cell-based
Settings: K562, 48 h
Experimental Readout: IC50

compound=COc1cccc2c1C(=O)c1c(O)c3c(c(O)c1C2=O)C[C@@](O)(C(=O)CO)C[C@@H]3O[C@H]1C[C@H](N)[C@H](O)[C@H](C)O1 experimental_readout=IC50 reading="1.51 µM"

// moving on: another record for IC50
Could you please provide reported IC50 for COc1cc(CNC(=O)CCCCCCC(C)C)ccc1OCCCCOc1ccc(C(N)=S)cc1 ? Thanks!
> 50 µM

----------
Molecular target: Transient receptor potential cation channel subfamily V member 1 (Homo sapiens) (UniProt Q8NER1)
Sequence (Q8NER1 whole entry): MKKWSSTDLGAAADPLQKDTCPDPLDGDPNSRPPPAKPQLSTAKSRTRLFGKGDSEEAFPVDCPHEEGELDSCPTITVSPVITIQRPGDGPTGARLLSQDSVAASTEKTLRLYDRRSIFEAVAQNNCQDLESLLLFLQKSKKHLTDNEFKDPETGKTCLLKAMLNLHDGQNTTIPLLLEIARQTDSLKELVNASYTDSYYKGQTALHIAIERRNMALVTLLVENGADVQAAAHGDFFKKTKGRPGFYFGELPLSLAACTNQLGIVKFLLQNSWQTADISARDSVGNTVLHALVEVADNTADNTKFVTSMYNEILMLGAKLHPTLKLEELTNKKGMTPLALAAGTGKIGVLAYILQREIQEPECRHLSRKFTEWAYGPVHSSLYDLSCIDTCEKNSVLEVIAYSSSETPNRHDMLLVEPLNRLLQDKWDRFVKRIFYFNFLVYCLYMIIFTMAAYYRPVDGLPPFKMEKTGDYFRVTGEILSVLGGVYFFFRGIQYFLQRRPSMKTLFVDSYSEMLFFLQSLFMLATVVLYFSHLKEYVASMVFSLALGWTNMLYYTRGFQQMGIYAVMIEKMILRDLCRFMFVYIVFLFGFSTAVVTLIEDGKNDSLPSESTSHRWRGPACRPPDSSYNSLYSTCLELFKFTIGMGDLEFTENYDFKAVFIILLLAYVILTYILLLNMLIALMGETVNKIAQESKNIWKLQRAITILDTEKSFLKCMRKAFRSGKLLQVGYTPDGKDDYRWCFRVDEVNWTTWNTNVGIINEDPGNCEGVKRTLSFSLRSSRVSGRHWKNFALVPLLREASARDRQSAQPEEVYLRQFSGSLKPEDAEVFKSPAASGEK
Test: Agonist activity at human TRPV1 expressed in HEK293 cells assessed as increase in calcium influx by measuring ratio of 340/380 nm excitatory wavelength at 10 uM treated for 2 mins by Fura-2AM dye-based fluorescence assay
Type: cell-based
Experimental Readout: Ratio

smiles_string=COc1cc(CNC(=O)CCCC/C=C/C(C)C)ccc1OCCCCCOc1ccc(C(N)=S)cc1 reading=1.87
smiles_string=COc1cc(CNC(=O)CCCCCCC(C)C)ccc1OC(=O)CCC(=O)Oc1ccc(-c2cc(=S)ss2)cc1 reading=1.96
smiles_string=COc1cc(CNC(=O)CCCC/C=C/C(C)C)ccc1OCCCCOc1ccc(-c2cc(=S)ss2)cc1 reading=1.96
smiles_string=COc1cc(CNC(=O)CCCCCCC(C)C)ccc1OCCCCCOc1ccc(C(N)=S)cc1 reading=1.76
smiles_string=COc1cc(CNC(=O)CCCCCCC(C)C)ccc1OC(=O)CCC(=O)Oc1ccc(C(N)=S)cc1 reading=1.87
smiles_string=COc1cc(CNC(=O)CCCCCCC(C)C)ccc1OCCCCCOc1ccc(-c2cc(=S)ss2)cc1 reading=1.69
smiles_string=COc1cc(CNC(=O)CCCC/C=C/C(C)C)ccc1OC(=O)c1ccc(C(N)=S)cc1 reading=1.77
smiles_string=COc1cc(CNC(=O)CCCC/C=C/C(C)C)ccc1OC(=O)CCC(=O)Oc1ccc(-c2cc(=S)ss2)cc1 reading=2.1
smiles_string=COc1cc(CNC(=O)CCCCCCC(C)C)ccc1OCCCCOc1ccc(-c2cc(=S)ss2)cc1 reading=1.69
smiles_string=COc1cc(CNC(=O)CCCCCCC(C)C)ccc1OC(=O)c1ccc(C(N)=S)cc1 reading=1.69

----------
System: Mus musculus
Assay: Ulcerogenic activity in Kunming mouse assessed as lesion in stomach at 30 mg/kg, po qd for 6 days measured on day 7 by microscopic analysis
Assay type: toxicity, organism-based
Conditions: in vivo, 144 h
Experimental Readout: Activity

Consider the worked cases shown below.
smiles_string=COc1cc(CNC(=O)CCCC/C=C/C(C)C)ccc1OC(=O)CCC(=O)Oc1ccc(-c2cc(=S)ss2)cc1 experimental_readout=Activity reading=Non-Toxic
smiles_string=COc1cc(CNC(=O)CCCC/C=C/C(C)C)ccc1OCCCCOc1ccc(-c2cc(=S)ss2)cc1 experimental_readout=Activity reading=Non-Toxic
smiles_string=COc1cc(CNC(=O)CCCC/C=C/C(C)C)ccc1OC(=O)c1ccc(C(N)=S)cc1 experimental_readout=Activity reading=Non-Toxic
smiles_string=COc1cc(CNC(=O)CCCC/C=C/C(C)C)ccc1O experimental_readout=Activity reading=Toxic

// moving on: another record for Activity
Could you please provide reported Activity for COc1cc(CNC(=O)CCCC/C=C/C(C)C)ccc1OC(=O)CCC(=O)Oc1ccc(C(N)=S)cc1 ? Thanks!
Non-Toxic

----------
Tested on: HeLa
Experiment: Antiproliferative activity against human HeLa cells after 48 hrs by MTT assay
Format: functional, cell-based
Experimental Readout: IC50 (µM)

smiles_string=COc1cc(CNC(=O)CCCC/C=C/C(C)C)ccc1OC(=O)c1ccc(C(N)=S)cc1 target_or_system=HeLa reading=39.6
smiles_string=COc1cccc2c1C(=O)c1c(O)c3c(c(O)c1C2=O)C[C@@](O)(C(=O)CO)C[C@@H]3O[C@H]1C[C@H](N)[C@H](O)[C@H](C)O1 target_or_system=HeLa reading=0.451

[P] COc1cc(CNC(=O)CCCC/C=C/C(C)C)ccc1OCCCCCOc1ccc(C(N)=S)cc1
[Q] COc1cc(CNC(=O)CCCCCCC(C)C)ccc1OC(=O)CCC(=O)Oc1ccc(-c2cc(=S)ss2)cc1
Given the listed records, identify the one among P and Q with higher IC50. Reply with the label of the item you choose.
P

[a] COc1cc(CNC(=O)CCCCCCC(C)C)ccc1OCCCCOc1ccc(-c2cc(=S)ss2)cc1
[b] COc1cc(CNC(=O)CCCC/C=C/C(C)C)ccc1OC(=O)CCC(=O)Oc1ccc(-c2cc(=S)ss2)cc1
Sorting ascending by IC50, which comes first: a or b ? Reply with the label of the item you choose.
b

----------
Test system: K562
Test: Antiproliferative activity against human K562 cells after 48 hrs by MTT assay
Format: functional, cell-based
Conditions: K562, 48 h
Experimental Readout: IC50

Could you please provide reported IC50 for COc1cc(CNC(=O)CCCC/C=C/C(C)C)ccc1OCCCCCOc1ccc(-c2cc(=S)ss2)cc1 ? Thanks!
> 50 µM

Could you please provide reported IC50 for COc1cc(CNC(=O)CCCC/C=C/C(C)C)ccc1OC(=O)CCC(=O)Oc1ccc(C(N)=S)cc1 ? Thanks!
> 50 µM

Could you please provide reported IC50 for COc1cc(CNC(=O)CCCCCCC(C)C)ccc1OCCCCOc1ccc(-c2cc(=S)ss2)cc1 ? Thanks!
> 50 µM

Could you please provide reported IC50 for COc1cc(CNC(=O)CCCCCCC(C)C)ccc1OCCCCCOc1ccc(-c2cc(=S)ss2)cc1 ? Thanks!
> 50 µM

Could you please provide reported IC50 for COc1cc(CNC(=O)CCCCCCC(C)C)ccc1OC(=O)c1ccc(C(N)=S)cc1 ? Thanks!
> 50 µM

Could you please provide reported IC50 for COc1cc(CNC(=O)CCCC/C=C/C(C)C)ccc1OCCCCOc1ccc(C(N)=S)cc1 ? Thanks!
> 50 µM

Could you please provide reported IC50 for COc1cc(CNC(=O)CCCC/C=C/C(C)C)ccc1O ? Thanks!
49.4 µM

Could you please provide reported IC50 for COc1cc(CNC(=O)CCCCCCC(C)C)ccc1OCCCCCOc1ccc(C(N)=S)cc1 ? Thanks!
> 50 µM

Could you please provide reported IC50 for COc1cc(CNC(=O)CCCC/C=C/C(C)C)ccc1OCCCCCOc1ccc(C(N)=S)cc1 ? Thanks!
> 50 µM

Could you please provide reported IC50 for COc1cc(CNC(=O)CCCC/C=C/C(C)C)ccc1OCCCCOc1ccc(-c2cc(=S)ss2)cc1 ? Thanks!
> 50 µM

Could you please provide reported IC50 for COc1cc(CNC(=O)CCCCCCC(C)C)ccc1OC(=O)CCC(=O)Oc1ccc(-c2cc(=S)ss2)cc1 ? Thanks!
5.93 µM

Could you please provide reported IC50 for COc1cc(CNC(=O)CCCCCCC(C)C)ccc1O [DIHYDROCAPSAICIN] ? Thanks!
> 50 µM

Could you please provide reported IC50 for COc1cc(CNC(=O)CCCC/C=C/C(C)C)ccc1OC(=O)CCC(=O)Oc1ccc(-c2cc(=S)ss2)cc1 ? Thanks!
4.45 µM

Could you please provide reported IC50 for COc1cc(CNC(=O)CCCC/C=C/C(C)C)ccc1OC(=O)c1ccc(C(N)=S)cc1 ? Thanks!
> 50 µM

----------
Test system: HeLa
Test: Antiproliferative activity against human HeLa cells after 48 hrs by MTT assay
Format: functional, cell-based
Experimental Readout: IC50

Consider the worked cases shown below.
molecule=COc1cc(CNC(=O)CCCC/C=C/C(C)C)ccc1O target_or_system=HeLa reading="> 50 µM"
molecule=COc1cc(CNC(=O)CCCCCCC(C)C)ccc1OCCCCCOc1ccc(-c2cc(=S)ss2)cc1 target_or_system=HeLa reading="> 50 µM"
molecule=COc1cc(CNC(=O)CCCC/C=C/C(C)C)ccc1OCCCCOc1ccc(-c2cc(=S)ss2)cc1 target_or_system=HeLa reading="47.1 µM"
molecule=COc1cc(CNC(=O)CCCCCCC(C)C)ccc1OCCCCOc1ccc(C(N)=S)cc1 target_or_system=HeLa reading="40.7 µM"

Could you please provide reported IC50 for COc1cc(CNC(=O)CCCCCCC(C)C)ccc1O [DIHYDROCAPSAICIN] ? Thanks!
> 50 µM

Could you please provide reported IC50 for COc1cc(CNC(=O)CCCCCCC(C)C)ccc1OC(=O)c1ccc(C(N)=S)cc1 ? Thanks!
> 50 µM

Could you please provide reported IC50 for COc1cc(CNC(=O)CCCC/C=C/C(C)C)ccc1OC(=O)CCC(=O)Oc1ccc(C(N)=S)cc1 ? Thanks!
> 50 µM

Could you please provide reported IC50 for COc1cc(CNC(=O)CCCC/C=C/C(C)C)ccc1OCCCCCOc1ccc(-c2cc(=S)ss2)cc1 ? Thanks!
> 50 µM

Could you please provide reported IC50 for COc1cc(CNC(=O)CCCC/C=C/C(C)C)ccc1OCCCCOc1ccc(C(N)=S)cc1 ? Thanks!
> 50 µM

Could you please provide reported IC50 for COc1cc(CNC(=O)CCCCCCC(C)C)ccc1OC(=O)CCC(=O)Oc1ccc(C(N)=S)cc1 ? Thanks!
> 50 µM

Could you please provide reported IC50 for COc1cc(CNC(=O)CCCCCCC(C)C)ccc1OCCCCCOc1ccc(C(N)=S)cc1 ? Thanks!
> 50 µM
